Hello, the source for this data is PubChem BioAssay (NCI), in case you need it.

Let's look at some molecules and their measured TGI.
# System: 786-0 renal
# assay summary: NCI tumour cell line growth inhibition, 48 h

Below, each entry is followed by its recorded TGI result.
molecule	TGI
C=C(C)[C@@H]1CC[C@@H]2C(=CC[C@]3(C)C([C@H](C)CC/C=C(/C)C(=O)O)CC[C@@]23C)[C@@]1(C)CCC(=O)O (stereo partly specified)	43.9 µM
C/C(CC(=O)Nc1cc(Cl)c(Cl)cc1Cl)=N\NS(=O)(=O)c1ccc(C)cc1	> 100 µM
N#Cc1nc(C(=O)c2ccccc2)oc1N	> 100 µM
Cc1nc(C)c(C(=O)NNC(=O)c2ccccc2)cc1C(=O)NNC(=O)c1ccccc1	> 100 µM
Cc1nc2cccc(F)c2c(=O)n1-c1nnc(C2CC2)s1	> 10 µM
O=C(N/N=C\c1cc(Br)cc(Br)c1O)N/N=C/c1cc(Br)cc(Br)c1O	23.1 µM

Please give the documented TGI of `CN1C(=O)[C@](C)(Cc2ccc(F)cc2)N(C(=O)OC(C)(C)C)[C@@H]1C(C)(C)C`
68.4 µM

Please give the documented TGI of `Cc1cncc2cccc(S(=O)(=O)N3CCCNC[C@@H]3C)c12`
> 100 µM

Please give the documented TGI of `c1cc[c]([Sn]([O]c2cccc3cccnc23)([c]2ccccc2)[c]2ccccc2)cc1`
0.029 µM

Please give the documented TGI of `Cc1c(-c2ccnc(N)n2)c2c(n1-c1ccccc1)C(=O)c1ccccc1C2=O`
> 100 µM

Please give the documented TGI of `COc1ccc(-c2nc3ncccn3c2-c2ccc(S(C)(=O)=O)cc2)cc1`
> 100 µM

Please give the documented TGI of `CCOC(=O)CCN1C(=O)c2c(NC(=O)C(=O)O)cccc2S1(=O)=O`
> 100 µM

Please give the documented TGI of `Cc1nc2ccccc2nc1N1CCCC1`
> 100 µM
